# assay.text: Cytotoxicity
# Assay type: cell-based
# conditions.used: human, HeLa cervix carcinoma cells (DSM ACC 57)
Where a SMILES comes first, the peptide text is derived from it. Bridges are numbered along the chain shown (N, C = ends). [ ]: non-standard residue; d: D form. The star is where a group is joined. X1 = CCCCCCCCCCCC[C@@H](O)[C@@H](O)CC(=O)*; Asp(3S-OH) = N[C@H](C(=O)O)[C@H](O)C(=O)O; Thr(4-Cl) = N[C@H](C(=O)O)[C@H](O)CCl; aThr = C[C@H](O)[C@H](N)C(=O)O; d(hSer) = N[C@H](CCO)C(=O)O; dDab = NCC[C@@H](N)C(=O)O; Dab = NCC[C@H](N)C(=O)O; Dhb = C/C=C(\N)C(=O)O
quantity.name: CC50 (µg/mL)
Enter your answer as a number in µg/mL; do not include the unit.

## Task Recorded CC50 of C/C=C1\NC(=O)[C@H]([C@H](C)O)NC(=O)[C@H](CCN)NC(=O)[C@@H](CCO)NC(=O)CNC(=O)[C@@H](CCN)NC(=O)[C@@H](NC(=O)C[C@H](O)[C@H](O)CCCCCCCCCCCC)COC(=O)[C@H]([C@H](O)CCl)NC(=O)[C@H]([C@H](O)C(=O)O)NC1=O [Keanumycin A, keanumycin A] (X1-S[dDab]G[d(hSer)][Dab][aThr][Dhb][Asp(3S-OH)][Thr(4-Cl)]; ester 1-C) , please.
## Result 34.9
